study_target: T1, EsCas13d, nuclease-dead (Eubacterium siraeum, UniProt B0MS50, R295A;H300A;R849A;H854A)
T1 sequence: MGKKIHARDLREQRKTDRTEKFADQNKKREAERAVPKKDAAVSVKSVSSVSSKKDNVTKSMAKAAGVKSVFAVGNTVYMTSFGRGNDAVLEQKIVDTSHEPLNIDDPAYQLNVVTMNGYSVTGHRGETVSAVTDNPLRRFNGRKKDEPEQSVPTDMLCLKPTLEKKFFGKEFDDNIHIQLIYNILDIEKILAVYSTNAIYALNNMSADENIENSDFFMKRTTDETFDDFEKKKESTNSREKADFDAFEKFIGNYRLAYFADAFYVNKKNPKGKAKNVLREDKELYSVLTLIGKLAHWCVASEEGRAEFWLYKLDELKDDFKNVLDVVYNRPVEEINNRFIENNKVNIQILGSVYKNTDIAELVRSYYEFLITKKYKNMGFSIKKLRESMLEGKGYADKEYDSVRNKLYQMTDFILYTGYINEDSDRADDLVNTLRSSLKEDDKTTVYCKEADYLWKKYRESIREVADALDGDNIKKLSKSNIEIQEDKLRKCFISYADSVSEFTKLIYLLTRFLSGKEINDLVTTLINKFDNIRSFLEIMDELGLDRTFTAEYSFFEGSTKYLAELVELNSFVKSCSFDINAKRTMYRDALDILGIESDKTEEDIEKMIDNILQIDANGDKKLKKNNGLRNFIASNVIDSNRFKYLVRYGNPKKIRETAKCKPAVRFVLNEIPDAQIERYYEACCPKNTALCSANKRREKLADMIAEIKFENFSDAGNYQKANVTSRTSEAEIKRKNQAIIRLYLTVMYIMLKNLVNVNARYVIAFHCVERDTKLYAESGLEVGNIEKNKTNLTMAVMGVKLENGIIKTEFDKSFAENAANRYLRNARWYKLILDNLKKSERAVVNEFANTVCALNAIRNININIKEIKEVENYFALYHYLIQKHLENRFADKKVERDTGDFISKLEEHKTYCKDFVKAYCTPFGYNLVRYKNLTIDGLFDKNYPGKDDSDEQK
assay: crRNA (strand 1, pre-loaded); Mg2+; 40 mM Tris-HCl pH 7.5, 150 mM NaCl, 6 mM MgCl2, 1 mM DTT, 0.1% Tween-20, 0.2 mg/ml BSA; 25 C; 10 min per concentration, then washed
conditions: tags: His6-TwinStrep-SUMO cleaved; N-terminal SNAP kept (SNAP-Surface 488); label: 3' end held by stalled T7 RNA polymerase
measured_endpoint: Kd (nM)
Quick reminder: number only, in nM, skip the unit.

# annotated cases, reported Kd shown
target 3 U2A,A9G (mixed) RNA 1: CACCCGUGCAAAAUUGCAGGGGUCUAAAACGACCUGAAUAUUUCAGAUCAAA RNA 2: GGGAAUGGAUCCACAUCUACGAAUUCGUUUUUGAUCUGAAAUGUUCAGGACUGCAGAUCGGAAGAGCACACGU | 47
target 1 insC 3' of 22,insC 3' of 18 (mixed) RNA 1: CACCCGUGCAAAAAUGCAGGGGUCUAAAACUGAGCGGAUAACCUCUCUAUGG RNA 2: GGGAAUGGAUCCACAUCUACGAAUUCGUACCCAUACGAGAGGUUAUCCGCUCACCGAGAUCGGAAGAGCACACGU | 41
target 1 insU 3' of 6,insU 3' of 2 (mixed) RNA 1: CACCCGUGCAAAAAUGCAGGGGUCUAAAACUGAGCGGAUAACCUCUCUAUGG RNA 2: GGGAAUGGAUCCACAUCUACGAAUUCGUACCAUAGAGAGGUUAUCCUGCUCUACCGAGAUCGGAAGAGCACACGU | 17
target 1 MT 5'PFS GAC 3'PFS UCC (mixed) RNA 1: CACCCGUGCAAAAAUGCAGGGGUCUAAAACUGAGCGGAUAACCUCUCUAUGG RNA 2: GGGAAUGGAUCCACAUCUACGAAUUCGACCCAUAGAGAGGUUAUCCGCUCAUCCAGAUCGGAAGAGCACACGU | 23
target 1 insA 3' of 15,insG 3' of 2 (mixed) RNA 1: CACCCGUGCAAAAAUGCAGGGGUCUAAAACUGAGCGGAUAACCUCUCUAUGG RNA 2: GGGAAUGGAUCCACAUCUACGAAUUCGUACCAUAGAGAAGGUUAUCCGCUCGACCGAGAUCGGAAGAGCACACGU | 6.7

Kindly review the next binder as well.
Record target 1 insG 3' of 11,insU 3' of 2 (mixed) RNA 1: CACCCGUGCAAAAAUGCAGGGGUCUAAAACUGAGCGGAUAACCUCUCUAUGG RNA 2: GGGAAUGGAUCCACAUCUACGAAUUCGUACCAUAGAGAGGUGUAUCCGCUCUACCGAGAUCGGAAGAGCACACGU . Reported Kd: 50
